Measured pIC50, listed per entry for reference.
Target: recombinant human KLK5 (Homo sapiens, UniProt Q9Y337)
Sequence (Q9Y337 23-293): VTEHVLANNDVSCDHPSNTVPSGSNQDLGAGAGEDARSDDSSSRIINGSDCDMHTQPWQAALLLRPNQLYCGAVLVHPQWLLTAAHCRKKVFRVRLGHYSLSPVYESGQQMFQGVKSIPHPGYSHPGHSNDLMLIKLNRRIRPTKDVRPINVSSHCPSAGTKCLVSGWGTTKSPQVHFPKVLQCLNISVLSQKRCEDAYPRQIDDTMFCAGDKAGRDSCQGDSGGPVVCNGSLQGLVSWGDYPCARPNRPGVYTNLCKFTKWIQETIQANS
Assay: Kallikrein (KLK) 5 enzymatic assay (Boc-VPR-AMC fluorogenic substrate)
Settings: recombinant human KLK5 0.1 μg/well, Boc-VPR-AMC 100 μM, pH 7.5, room temperature, 1% DMSO; tested a minimum of three times
pIC50: −log10 of the molar value.

# return recorded pIC50 for input CC(C)CCN1CC(n2nc3ccc(-c4cccc5c(N)nccc45)cc3c2COc2ccccc2CC(=O)O)C1 [Compound 121c]
> 6.00

Determine from records and report pIC50 for N#Cc1cccc(O[C@@H]2CCc3ccc(-c4cccc5c(N)nccc45)cc32)c1CC(=O)O [Compound 433b]
> 6.00

Please supply the value of reported pIC50 for the item Cc1cccc(OCc2nn(C3CCCC3)c3ccc(-c4cccc5c(N)nccc45)cc23)c1CC(=O)O [Compound 239f]
> 6.00

Please give the documented pIC50 of Cc1ccc(CC(=O)O)c(O[C@@H]2CCc3ccc(-c4cccc5c(N)nccc45)cc32)c1 [Compound 426b]
> 6.00

Fill in reported pIC50 for this entry: Nc1nccc2c(-c3ccc4c(c3)C(Oc3ccccc3CC(=O)O)CC4)cccc12 (stereo not drawn) [Compound 200b]
> 6.00

Give the reported pIC50 for this compound. CCOC(=O)N1CC(n2nc3ccc(-c4ccc5ccnc(N)c5c4)cc3c2COc2ccccc2CC(=O)O)C1 [Compound 127b]
5.00 to 6.00

Answer with the recorded pIC50 of CC(C)n1nc(COc2ccccc2CC(=O)O)c2cc(-c3ccc4[nH]nc(N)c4c3)ccc21 [Compound 32c] only.
< 5.00

Output measured pIC50 for this item: Cc1ccc(OCc2nn(C3CCC3)c3ccc(-c4cccc5c(N)nccc45)cc23)c(CC(=O)O)c1 [Compound 165b]
> 6.00

Assign pIC50 to the following record: Nc1nccc2c(-c3ccc4c(c3)c(COc3cc(F)ccc3CC(=O)O)nn4C3CCC3)cccc12 [Compound 168c]
> 6.00

Give pIC50 for Nc1nccc2ccc(-c3ccc4c(c3)C(Oc3ccccc3CC(=O)O)CC43CCCC3)cc12 (stereo not drawn) [Compound 355b]
> 6.00

Provide one value: measured pIC50 of COc1c(C(=N)N)cccc1-c1ccc2c(c1)c(COc1ccccc1CC(=O)O)nn2C1CCC1 [Compound 238d]
> 6.00

Answer with the recorded pIC50 of CC(C)OC(=O)N1CC[C@H](n2nc(COc3ccccc3CC(=O)O)c3cc(-c4cccc5c(N)nccc45)ccc32)C1 [Compound 359b] only.
> 6.00

Retrieve pIC50 measured for Nc1nccc2c(-c3ccc4c(c3)c(CCc3ccccc3CC(=O)O)cn4C3CCOC3)cccc12 (stereo not drawn) [Compound 302b] and print it.
> 6.00

Specify pIC50 for CC(=O)N1CCC2(CC1)CC(Oc1cccc(C)c1CC(=O)O)c1cc(-c3ccc4ccnc(N)c4c3)ccc12 (stereo not drawn) [Compound 406c] and stop.
> 6.00

Input Cn1c(=O)n(Cc2ccccc2CC(=O)O)c2cc(-c3cccc(C(N)=O)c3)ccc21 [Compound 219d] , output reported pIC50.
5.00 to 6.00

src = patent US20240239752A1
